- TARGET SYSTEM: Tyrosine-protein kinase receptor UFO (Homo sapiens)
- Sequence (P30530 whole entry): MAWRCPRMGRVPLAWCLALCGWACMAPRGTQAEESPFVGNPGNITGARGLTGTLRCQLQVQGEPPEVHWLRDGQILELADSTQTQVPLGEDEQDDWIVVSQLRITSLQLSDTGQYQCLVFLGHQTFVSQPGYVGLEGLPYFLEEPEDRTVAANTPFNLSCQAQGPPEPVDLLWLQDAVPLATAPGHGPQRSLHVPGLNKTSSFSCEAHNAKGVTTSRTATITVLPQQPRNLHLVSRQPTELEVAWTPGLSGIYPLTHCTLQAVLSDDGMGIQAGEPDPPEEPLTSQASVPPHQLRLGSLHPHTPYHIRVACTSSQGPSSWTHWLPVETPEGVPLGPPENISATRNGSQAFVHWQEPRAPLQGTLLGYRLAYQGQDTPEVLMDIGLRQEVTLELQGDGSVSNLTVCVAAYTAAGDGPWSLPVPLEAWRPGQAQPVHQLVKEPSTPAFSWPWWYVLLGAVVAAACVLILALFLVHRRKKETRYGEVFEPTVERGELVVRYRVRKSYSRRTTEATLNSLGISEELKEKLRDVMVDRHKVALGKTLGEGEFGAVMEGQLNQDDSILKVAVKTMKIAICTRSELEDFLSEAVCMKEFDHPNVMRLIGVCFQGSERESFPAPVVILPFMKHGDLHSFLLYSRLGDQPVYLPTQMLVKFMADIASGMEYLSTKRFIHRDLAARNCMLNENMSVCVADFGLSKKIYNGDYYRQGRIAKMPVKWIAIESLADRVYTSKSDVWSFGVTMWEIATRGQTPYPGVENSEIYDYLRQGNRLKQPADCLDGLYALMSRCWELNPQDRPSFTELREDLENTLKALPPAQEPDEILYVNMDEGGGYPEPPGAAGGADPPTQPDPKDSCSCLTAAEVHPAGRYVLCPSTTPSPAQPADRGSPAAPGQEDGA
- ASSAY PROCEDURE: Inhibition of recombinant His-tagged human Axl (473 to end residues) cytoplasmic domain expressed in insect system using poly (Glu-Ala-Tyr) peptide as substrate after 5 mins in presence of ADP by fluorescence analysis
QUANTITY NAME: IC50 (nM)
Form entry: value (nM) — number only.

Please state recorded IC50 (tested on Tyrosine-protein kinase receptor UFO (Homo sapiens)) of `O=C(Nc1ccc(Oc2c(Br)cnc3[nH]cnc23)c(F)c1)c1cccn(-c2ccc(F)cc2)c1=O`
2000

Please state recorded IC50 (tested on Tyrosine-protein kinase receptor UFO (Homo sapiens)) of `O=C(Nc1ccc(Oc2ccnc3[nH]cnc23)c(F)c1)c1cccn(-c2ccc(F)cc2)c1=O`
0.77

Please state recorded IC50 (tested on Tyrosine-protein kinase receptor UFO (Homo sapiens)) of `CC(C)c1nc2c(Oc3ccc(NC(=O)c4cccn(-c5ccc(F)cc5)c4=O)cc3F)ccnc2[nH]1`
70

* * *

- TARGET SYSTEM: Tyrosine-protein kinase receptor TYRO3 (Homo sapiens) (UniProt Q06418)
- Sequence (Q06418 whole entry, the tested form may be a part): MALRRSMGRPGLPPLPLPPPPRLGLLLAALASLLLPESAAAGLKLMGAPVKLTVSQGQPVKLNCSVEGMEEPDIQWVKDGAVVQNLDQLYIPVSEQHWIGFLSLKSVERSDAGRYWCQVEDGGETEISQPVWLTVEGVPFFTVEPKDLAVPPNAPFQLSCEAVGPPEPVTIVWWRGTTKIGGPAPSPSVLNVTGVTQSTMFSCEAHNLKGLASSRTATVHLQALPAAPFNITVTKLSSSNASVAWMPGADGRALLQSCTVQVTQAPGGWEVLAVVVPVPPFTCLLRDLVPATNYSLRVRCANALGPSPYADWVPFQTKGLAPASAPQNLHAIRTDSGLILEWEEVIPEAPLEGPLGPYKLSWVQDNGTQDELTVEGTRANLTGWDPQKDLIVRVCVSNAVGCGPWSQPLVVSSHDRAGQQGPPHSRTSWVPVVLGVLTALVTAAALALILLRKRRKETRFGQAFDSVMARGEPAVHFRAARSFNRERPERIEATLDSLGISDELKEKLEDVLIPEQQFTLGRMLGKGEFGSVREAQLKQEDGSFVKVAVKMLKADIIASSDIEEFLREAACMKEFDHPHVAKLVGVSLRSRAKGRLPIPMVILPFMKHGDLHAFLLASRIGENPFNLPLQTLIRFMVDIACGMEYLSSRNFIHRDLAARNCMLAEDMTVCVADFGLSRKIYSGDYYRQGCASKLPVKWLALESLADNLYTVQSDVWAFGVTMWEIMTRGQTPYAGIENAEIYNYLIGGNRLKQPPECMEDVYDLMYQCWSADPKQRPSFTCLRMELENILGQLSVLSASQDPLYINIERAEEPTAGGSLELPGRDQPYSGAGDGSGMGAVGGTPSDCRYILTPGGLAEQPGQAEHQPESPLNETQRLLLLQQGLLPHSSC
- ASSAY PROCEDURE: Binding affinity to wild-type human partial length TYRO3 (S497 to T814 residues) expressed in bacterial expression system assessed as fraction of unbound kinase to substrate at 1 uM after 1 hr by KinomeScan assay
Could you please report measured Activity for the items listed next?

Name the recorded Activity for `CC(C)c1nc2c(Oc3ccc(NC(=O)c4cccn(-c5ccc(F)cc5)c4=O)cc3F)ccnc2[nH]1` .
39%

Name the recorded Activity for `Cc1cnc2[nH]cnc2c1Oc1ccc(NC(=O)c2cccn(-c3ccc(F)cc3)c2=O)cc1F` .
0%

Name the recorded Activity for `O=C(Nc1ccc(Oc2c(Br)cnc3[nH]cnc23)c(F)c1)c1cccn(-c2ccc(F)cc2)c1=O` .
11%

Name the recorded Activity for `O=C(Nc1ccc(Oc2ccnc3[nH]cnc23)c(F)c1)c1cccn(-c2ccc(F)cc2)c1=O` .
81%

* * *

- TARGET SYSTEM: Tyrosine-protein kinase receptor UFO (Homo sapiens)
- ASSAY PROCEDURE: Binding affinity to human AXL (R497 to Y821 residues) expressed in bacterial expression system assessed as fraction of unbound kinase to substrate at 1 uM after 1 hr by KinomeScan assay
Could you please report measured Activity for the items listed next?

Please state recorded Activity (tested on Tyrosine-protein kinase receptor UFO (Homo sapiens)) of `O=C(Nc1ccc(Oc2ccnc3[nH]cnc23)c(F)c1)c1cccn(-c2ccc(F)cc2)c1=O`
90.7%

Please state recorded Activity (tested on Tyrosine-protein kinase receptor UFO (Homo sapiens)) of `Cc1cnc2[nH]cnc2c1Oc1ccc(NC(=O)c2cccn(-c3ccc(F)cc3)c2=O)cc1F`
67%

Please state recorded Activity (tested on Tyrosine-protein kinase receptor UFO (Homo sapiens)) of `O=C(Nc1ccc(Oc2c(Br)cnc3[nH]cnc23)c(F)c1)c1cccn(-c2ccc(F)cc2)c1=O`
52%

Please state recorded Activity (tested on Tyrosine-protein kinase receptor UFO (Homo sapiens)) of `CC(C)c1nc2c(Oc3ccc(NC(=O)c4cccn(-c5ccc(F)cc5)c4=O)cc3F)ccnc2[nH]1`
90%

* * *

- TARGET SYSTEM: UniProtKB P08581
- Sequence (P08581 whole entry, the tested form may be a part): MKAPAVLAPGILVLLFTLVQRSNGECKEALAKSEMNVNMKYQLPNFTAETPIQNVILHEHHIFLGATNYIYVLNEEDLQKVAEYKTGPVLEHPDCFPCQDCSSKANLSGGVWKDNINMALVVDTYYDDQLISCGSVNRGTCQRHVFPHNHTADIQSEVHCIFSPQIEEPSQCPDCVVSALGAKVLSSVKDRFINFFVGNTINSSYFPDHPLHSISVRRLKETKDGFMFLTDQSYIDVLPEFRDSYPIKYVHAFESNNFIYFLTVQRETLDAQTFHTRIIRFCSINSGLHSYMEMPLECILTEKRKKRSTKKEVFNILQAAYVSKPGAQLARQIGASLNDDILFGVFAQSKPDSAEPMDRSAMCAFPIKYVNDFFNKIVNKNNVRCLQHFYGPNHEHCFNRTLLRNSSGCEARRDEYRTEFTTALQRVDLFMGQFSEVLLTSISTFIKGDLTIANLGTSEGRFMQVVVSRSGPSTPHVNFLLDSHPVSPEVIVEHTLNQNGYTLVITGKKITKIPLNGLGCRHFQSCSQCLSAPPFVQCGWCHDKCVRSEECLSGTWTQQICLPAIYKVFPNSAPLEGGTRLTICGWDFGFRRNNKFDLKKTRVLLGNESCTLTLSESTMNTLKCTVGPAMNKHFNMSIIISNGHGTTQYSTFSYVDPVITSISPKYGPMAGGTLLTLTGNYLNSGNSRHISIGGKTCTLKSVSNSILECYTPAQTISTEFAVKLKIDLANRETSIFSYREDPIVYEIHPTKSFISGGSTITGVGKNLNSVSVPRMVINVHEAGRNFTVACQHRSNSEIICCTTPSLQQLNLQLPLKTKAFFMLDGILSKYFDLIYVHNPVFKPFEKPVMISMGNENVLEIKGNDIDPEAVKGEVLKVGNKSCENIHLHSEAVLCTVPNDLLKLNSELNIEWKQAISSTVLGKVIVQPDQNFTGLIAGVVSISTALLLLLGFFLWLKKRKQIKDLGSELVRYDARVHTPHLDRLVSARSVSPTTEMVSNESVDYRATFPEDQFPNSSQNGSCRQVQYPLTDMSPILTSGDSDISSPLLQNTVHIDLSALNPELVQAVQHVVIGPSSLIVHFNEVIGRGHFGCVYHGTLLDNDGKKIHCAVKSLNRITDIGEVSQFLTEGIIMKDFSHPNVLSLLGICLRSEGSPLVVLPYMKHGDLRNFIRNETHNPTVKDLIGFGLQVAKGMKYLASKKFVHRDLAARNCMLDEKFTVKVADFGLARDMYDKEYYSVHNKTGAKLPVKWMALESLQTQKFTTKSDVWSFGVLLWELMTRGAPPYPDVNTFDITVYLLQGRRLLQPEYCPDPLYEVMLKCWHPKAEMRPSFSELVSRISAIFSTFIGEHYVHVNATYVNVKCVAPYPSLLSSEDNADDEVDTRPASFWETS
- ASSAY PROCEDURE: Binding affinity to human MET (D1010 to S1367 residues) expressed in bacterial expression system assessed as fraction of unbound kinase to substrate at 1 uM after 1 hr by KinomeScan assay
QUANTITY NAME: Activity (%)
Form entry: value (%) — number only.

Please state recorded Activity (tested on UniProtKB P08581) of `Cc1cnc2[nH]cnc2c1Oc1ccc(NC(=O)c2cccn(-c3ccc(F)cc3)c2=O)cc1F`
94.5

Please state recorded Activity (tested on UniProtKB P08581) of `CC(C)c1nc2c(Oc3ccc(NC(=O)c4cccn(-c5ccc(F)cc5)c4=O)cc3F)ccnc2[nH]1`
96.7

Please state recorded Activity (tested on UniProtKB P08581) of `O=C(Nc1ccc(Oc2ccnc3[nH]cnc23)c(F)c1)c1cccn(-c2ccc(F)cc2)c1=O`
96

Please state recorded Activity (tested on UniProtKB P08581) of `O=C(Nc1ccc(Oc2c(Br)cnc3[nH]cnc23)c(F)c1)c1cccn(-c2ccc(F)cc2)c1=O`
82

* * *

- TARGET SYSTEM: Hepatocyte growth factor receptor (Homo sapiens)
- ASSAY PROCEDURE: Binding affinity to human MET (D1010 to S1367 residues) expressed in bacterial expression system assessed as fraction of unbound kinase to substrate at 10 uM after 1 hr by KinomeScan assay
Could you please report measured Activity for the items listed next?
Form entry: value (%) — number only.

Name the recorded Activity for `O=C(Nc1ccc(Oc2c(Br)cnc3[nH]cnc23)c(F)c1)c1cccn(-c2ccc(F)cc2)c1=O` .
96.4

Name the recorded Activity for `CC(C)c1nc2c(Oc3ccc(NC(=O)c4cccn(-c5ccc(F)cc5)c4=O)cc3F)ccnc2[nH]1` .
96.6

Name the recorded Activity for `Cc1cnc2[nH]cnc2c1Oc1ccc(NC(=O)c2cccn(-c3ccc(F)cc3)c2=O)cc1F` .
96.2

Name the recorded Activity for `O=C(Nc1ccc(Oc2ccnc3[nH]cnc23)c(F)c1)c1cccn(-c2ccc(F)cc2)c1=O` .
97

* * *

Could you please report measured Activity for the items listed next?
- TARGET SYSTEM: Serine/threonine-protein kinase B-raf (Homo sapiens) (UniProt P15056)
- Sequence (P15056 whole entry, the tested form may be a part): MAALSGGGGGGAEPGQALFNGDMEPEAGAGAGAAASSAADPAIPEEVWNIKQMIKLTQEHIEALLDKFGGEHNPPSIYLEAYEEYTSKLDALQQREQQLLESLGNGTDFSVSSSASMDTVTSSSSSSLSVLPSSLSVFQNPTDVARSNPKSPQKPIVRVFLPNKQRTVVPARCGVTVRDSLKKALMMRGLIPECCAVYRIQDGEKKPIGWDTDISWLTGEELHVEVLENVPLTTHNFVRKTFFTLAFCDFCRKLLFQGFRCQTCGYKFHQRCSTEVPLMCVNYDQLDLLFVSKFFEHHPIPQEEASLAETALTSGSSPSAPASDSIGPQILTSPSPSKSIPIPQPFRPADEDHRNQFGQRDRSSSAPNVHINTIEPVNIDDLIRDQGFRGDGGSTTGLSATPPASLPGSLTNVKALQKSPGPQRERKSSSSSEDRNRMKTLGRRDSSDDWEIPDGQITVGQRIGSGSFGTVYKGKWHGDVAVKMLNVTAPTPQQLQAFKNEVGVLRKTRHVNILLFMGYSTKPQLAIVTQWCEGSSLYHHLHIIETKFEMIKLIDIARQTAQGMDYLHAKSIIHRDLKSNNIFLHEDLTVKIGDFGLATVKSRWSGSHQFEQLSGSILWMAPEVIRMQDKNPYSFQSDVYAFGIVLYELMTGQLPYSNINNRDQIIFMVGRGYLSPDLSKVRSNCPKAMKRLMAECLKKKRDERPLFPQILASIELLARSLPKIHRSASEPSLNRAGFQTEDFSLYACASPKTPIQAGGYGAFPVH
- ASSAY PROCEDURE: Binding affinity to wild-type human partial length BRAF (S429 to E741 residues) expressed in mammalian expression system assessed as fraction of unbound kinase to substrate at 0.1 uM after 1 hr by KinomeScan assay

Name the recorded Activity for `CC(C)c1nc2c(Oc3ccc(NC(=O)c4cccn(-c5ccc(F)cc5)c4=O)cc3F)ccnc2[nH]1` .
0%

Name the recorded Activity for `O=C(Nc1ccc(Oc2c(Br)cnc3[nH]cnc23)c(F)c1)c1cccn(-c2ccc(F)cc2)c1=O` .
0%

Name the recorded Activity for `O=C(Nc1ccc(Oc2ccnc3[nH]cnc23)c(F)c1)c1cccn(-c2ccc(F)cc2)c1=O` .
9%

Name the recorded Activity for `Cc1cnc2[nH]cnc2c1Oc1ccc(NC(=O)c2cccn(-c3ccc(F)cc3)c2=O)cc1F` .
0%

* * *

- TARGET SYSTEM: UniProt:O14965
- Sequence (whole entry): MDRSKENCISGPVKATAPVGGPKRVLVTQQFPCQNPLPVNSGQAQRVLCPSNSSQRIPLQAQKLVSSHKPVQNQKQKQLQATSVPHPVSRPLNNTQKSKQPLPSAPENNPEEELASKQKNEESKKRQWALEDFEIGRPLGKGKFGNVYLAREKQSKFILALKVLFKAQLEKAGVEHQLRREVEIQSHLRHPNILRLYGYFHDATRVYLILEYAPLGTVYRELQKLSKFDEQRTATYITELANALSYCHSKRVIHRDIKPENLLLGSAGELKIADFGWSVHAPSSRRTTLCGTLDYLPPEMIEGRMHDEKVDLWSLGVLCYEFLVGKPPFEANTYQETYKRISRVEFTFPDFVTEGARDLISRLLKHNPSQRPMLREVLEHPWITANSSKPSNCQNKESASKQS
- ASSAY PROCEDURE: Binding affinity to wild-type human partial length AURKA (E122 to K401 residues) expressed in mammalian expression system assessed as fraction of unbound kinase to substrate at 10 uM after 1 hr by KinomeScan assay
QUANTITY NAME: Activity (%)
Form entry: value (%) — number only.

Name the recorded Activity for `O=C(Nc1ccc(Oc2c(Br)cnc3[nH]cnc23)c(F)c1)c1cccn(-c2ccc(F)cc2)c1=O` .
45

Name the recorded Activity for `CC(C)c1nc2c(Oc3ccc(NC(=O)c4cccn(-c5ccc(F)cc5)c4=O)cc3F)ccnc2[nH]1` .
12

Name the recorded Activity for `Cc1cnc2[nH]cnc2c1Oc1ccc(NC(=O)c2cccn(-c3ccc(F)cc3)c2=O)cc1F` .
41

Name the recorded Activity for `O=C(Nc1ccc(Oc2ccnc3[nH]cnc23)c(F)c1)c1cccn(-c2ccc(F)cc2)c1=O` .
13

Just for reference, ChEMBL document CHEMBL4261615 is where these values come from.
